Test: Human in vivo PK data: concentration-dose ratio (CDR) and toxicokinetic variability factor (TKVF);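 also: Literature-pooled human in vivo PK data, plasma, serum or cord blood concentrations per daily dose, weighted by study population size across non-pregnant, pregnant and fetal groups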
Settings: Pregnant population
Just a reminder that ties go to condition not met: only CDR fold difference to non-pregnant strictly below 0.7 counts as condition met.

**Q:** Criterion: CDR fold difference to non-pregnant strictly below 0.7. Is it met by C[n+]1ccc(-c2cc[n+](C)cc2)cc1 ?
**A:** condition met

**Q:** Input O=P1(N(CCCl)CCCl)NCCCO1 (centres unmarked) [Cyclophosphamide] ; condition: CDR fold difference to non-pregnant strictly below 0.7. Does it hold?
**A:** condition not met

**Q:** A record lists CC1=C(/C=C/C(C)=C/C=C/C(C)=C/CO)C(C)(C)CCC1 . Is its CDR fold difference to non-pregnant below 0.7?
**A:** condition not met
